We begin with a simple list: items and their reported pIC50.
Target: UniProt Q12866
Sequence (Q12866 21-999): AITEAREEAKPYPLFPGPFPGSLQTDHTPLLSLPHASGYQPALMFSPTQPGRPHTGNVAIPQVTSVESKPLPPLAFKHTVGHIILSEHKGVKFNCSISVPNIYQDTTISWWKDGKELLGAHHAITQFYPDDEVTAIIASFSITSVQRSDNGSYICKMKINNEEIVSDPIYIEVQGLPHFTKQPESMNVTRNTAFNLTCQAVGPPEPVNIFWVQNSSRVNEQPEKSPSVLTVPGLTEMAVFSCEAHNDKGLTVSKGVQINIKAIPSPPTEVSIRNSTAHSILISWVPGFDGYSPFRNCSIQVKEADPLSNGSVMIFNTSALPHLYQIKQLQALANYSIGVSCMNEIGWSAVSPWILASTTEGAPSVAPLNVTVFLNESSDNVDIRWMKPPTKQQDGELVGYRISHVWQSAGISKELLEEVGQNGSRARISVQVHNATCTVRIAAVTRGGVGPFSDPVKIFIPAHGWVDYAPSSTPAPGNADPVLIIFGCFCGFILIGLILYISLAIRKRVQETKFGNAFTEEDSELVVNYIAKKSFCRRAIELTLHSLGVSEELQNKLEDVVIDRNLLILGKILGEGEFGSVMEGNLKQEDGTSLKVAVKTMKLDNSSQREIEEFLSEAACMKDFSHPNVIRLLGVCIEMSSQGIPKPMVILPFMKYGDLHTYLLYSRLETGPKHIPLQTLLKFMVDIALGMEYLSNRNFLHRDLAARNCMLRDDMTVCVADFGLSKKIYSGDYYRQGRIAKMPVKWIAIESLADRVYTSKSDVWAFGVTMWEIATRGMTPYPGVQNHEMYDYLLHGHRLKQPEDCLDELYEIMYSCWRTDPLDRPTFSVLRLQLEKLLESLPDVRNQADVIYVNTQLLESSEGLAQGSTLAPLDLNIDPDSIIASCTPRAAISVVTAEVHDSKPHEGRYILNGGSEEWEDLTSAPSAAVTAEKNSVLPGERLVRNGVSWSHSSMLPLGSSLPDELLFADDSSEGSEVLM
Experiment: TR-FRET kinase activity assay, MERTK
Assay type: biochemical
Conditions: TR-FRET activity assay, ATP at Km, 60 minutes; read-out: Mer IC50
pIC50: −log10 of the molar value.
ENDPOINT: pIC50

INSERT INTO assay_data (molecule, endpoint, reading) VALUES
  ('COC[C@H](C)Nc1ncc2c(-c3ccnc(N4CCOCC4=O)c3)cc([C@H]3CC[C@H](O)CC3)n2n1 [Compound 423]', 'pIC50', '≥ 7.00'),
  ('COC[C@H](C)Nc1ncc2c(-c3cnn(C(C)(C)C(=O)N4CCCC5(COC5)C4)c3)cc([C@H]3CC[C@H](O)CC3)n2n1 [Compound 516]', 'pIC50', '≥ 7.00'),
  ('COC[C@H](C)Nc1ncc2c(-c3cnn(C4CN(CCC(F)(F)F)C4)c3)cc([C@H]3CC[C@H](O)CC3)n2n1 [Compound 291]', 'pIC50', '≥ 7.00');

* * *

Target: FLT3 (Homo sapiens, UniProt P36888)
Experiment: TR-FRET kinase activity assay, FLT3
Assay type: biochemical
Details: ATP at Km, 60 minutes
pIC50: −log10 of the molar value.
In this section we review reported pIC50 values for a set of compounds.
ENDPOINT: pIC50

INSERT INTO assay_data (compound, endpoint, reading) VALUES
  ('COCC(C)Nc1ncc2c(-c3cnn(C4COC4)c3)cc(C3CCC(O)CC3)n2n1 (stereo not shown)', 'pIC50', '6.00 to 7.00'),
  ('CNC(=O)Cn1cc(-c2cc([C@H]3CC[C@H](O)CC3)n3nc(N[C@@H](C)COC)ncc23)cn1', 'pIC50', '6.00 to 7.00'),
  ('Cc1cc(-c2cc([C@H]3CC[C@H](O)CC3)n3nc(N[C@@H](C)COC(F)F)ncc23)ccn1', 'pIC50', '6.00 to 7.00'),
  ('COC[C@H](C)Nc1ncc2c(-c3ccc([S@@](C)(=N)=O)nc3)cc([C@H]3CC[C@H](O)CC3)n2n1', 'pIC50', '5.00 to 6.00'),
  ('COC[C@H](C)Nc1ncc2c(-c3cnn(CC4COC4)c3)cc([C@H]3CC[C@H](O)CC3)n2n1', 'pIC50', '6.00 to 7.00'),
  ('COC[C@H](C)N(C)c1ncc2c(-c3ccnc(C)c3)cc([C@H]3CC[C@H](O)CC3)n2n1', 'pIC50', '5.00 to 6.00'),
  ('COC[C@H](C)Nc1ncc2c(-c3cnn(CCS(C)(=O)=O)c3)cc([C@H]3CC[C@H](O)CC3)n2n1', 'pIC50', '6.00 to 7.00');

* * *

Target: FLT3 (Homo sapiens)
Sequence (P36888 27-993): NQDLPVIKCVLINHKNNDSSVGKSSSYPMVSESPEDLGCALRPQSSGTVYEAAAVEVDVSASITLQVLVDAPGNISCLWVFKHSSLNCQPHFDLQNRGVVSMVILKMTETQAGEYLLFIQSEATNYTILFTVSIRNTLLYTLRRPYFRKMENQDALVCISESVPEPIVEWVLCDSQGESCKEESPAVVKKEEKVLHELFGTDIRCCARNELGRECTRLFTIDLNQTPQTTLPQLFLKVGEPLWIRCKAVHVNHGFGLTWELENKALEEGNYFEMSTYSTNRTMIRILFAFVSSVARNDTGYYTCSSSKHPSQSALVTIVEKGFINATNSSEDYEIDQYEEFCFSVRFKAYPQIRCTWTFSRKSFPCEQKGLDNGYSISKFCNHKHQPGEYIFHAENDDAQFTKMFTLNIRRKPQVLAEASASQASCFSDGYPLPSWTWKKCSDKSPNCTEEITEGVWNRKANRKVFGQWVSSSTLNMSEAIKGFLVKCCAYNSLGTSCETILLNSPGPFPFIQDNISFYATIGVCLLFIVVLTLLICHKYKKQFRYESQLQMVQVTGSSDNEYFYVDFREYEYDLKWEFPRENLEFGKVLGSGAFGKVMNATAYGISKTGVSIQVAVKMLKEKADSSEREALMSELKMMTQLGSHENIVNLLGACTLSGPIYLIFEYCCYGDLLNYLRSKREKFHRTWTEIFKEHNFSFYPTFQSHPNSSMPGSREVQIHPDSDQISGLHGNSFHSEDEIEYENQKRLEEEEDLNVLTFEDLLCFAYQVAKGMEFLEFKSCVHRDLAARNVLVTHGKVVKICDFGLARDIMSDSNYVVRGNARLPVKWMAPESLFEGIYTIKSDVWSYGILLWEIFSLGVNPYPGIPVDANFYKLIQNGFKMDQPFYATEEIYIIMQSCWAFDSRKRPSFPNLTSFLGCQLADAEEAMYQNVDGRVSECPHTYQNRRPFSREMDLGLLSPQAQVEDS
Where a name gives a salt, the structure may show the parent alone.
ENDPOINT: IC50

INSERT INTO assay_data (molecule, reading) VALUES
  ('COCC(C)Nc1ncc2c(-c3ccc(C(C)N4CCOCC4)cc3)cc(C3CCC(O)CC3)n2n1 (centres unmarked) [Compound 143]', '≤ 100 nM'),
  ('COCC(C)Nc1ncc2c(C3CCN(c4ccnc(C)n4)C3)cc(C3CCC(O)CC3)n2n1 (centres unmarked) [Compound 374]', '1000 to 10000 nM'),
  ('COC[C@H](C)Nc1ncc2c(-c3cnn(C(C)(C)CO)c3)cc([C@H]3CC[C@H](O)CC3)n2n1', '1000 to 10000 nM'),
  ('COC[C@H](C)Nc1ncc2c(-c3ccc(CN4CCOCC4)cc3)cc([C@H]3CC[C@H](NC(C)=O)CC3)n2n1', '100 to 1000 nM'),
  ('COCCOc1cc(-c2cc([C@H]3CC[C@H](O)CC3)n3nc(N[C@@H](C)COC)ncc23)ccn1', '1000 to 10000 nM'),
  ('C[C@@H](COC(F)F)Nc1ncc2c(-c3cnn(CCS(C)(=O)=O)c3)cc([C@H]3CC[C@H](O)CC3)n2n1', '100 to 1000 nM'),
  ('C[C@@H](CC(F)(F)F)Nc1ncc2c(-c3cncc([S@@](C)(=N)=O)c3)cc([C@H]3CC[C@H](O)CC3)n2n1', '100 to 1000 nM'),
  ('CCCCC[C@H](C)Nc1ncc2c(C3CCNCC3)cc([C@H]3CC[C@H](O)CC3)n2n1 [Compound 116, hydrochloride]', '100 to 1000 nM'),
  ('COC[C@H](C)Nc1ncc2c(C3=C[C@H]4CC[C@@H](C3)N4C(=O)N3CCOCC3)cc([C@H]3CC[C@H](O)CC3)n2n1', '100 to 1000 nM'),
  ('COC[C@H](C)Nc1ncc2c(-c3cnn(C4COC4)c3)cc(-c3cccc(O)c3)n2n1', '100 to 1000 nM'),
  ('COC[C@H](C)Nc1ncc2c(-c3cnn(Cc4cc(C)nn4C)c3)cc([C@H]3CC[C@H](O)CC3)n2n1', '100 to 1000 nM'),
  ('COC[C@H](C)Nc1ncc2c(C3=C[C@H]4CCC(C3)N4C(C)=O)cc([C@H]3CC[C@H](O)CC3)n2n1', '100 to 1000 nM'),
  ('COC[C@H](C)Nc1ncc2c(-c3ccnc(NC(C)C)c3)cc([C@H]3CC[C@H](O)CC3)n2n1', '100 to 1000 nM'),
  ('COC[C@H](C)Nc1ncc2c(-c3cnn(CS(C)(=O)=O)c3)cc([C@H]3CC[C@H](O)CC3)n2n1', '100 to 1000 nM');
